- testName: Luminescence activity assay of purified Gaussia luciferase mutants on fluoro-coelenterazine
- Assay type: biochemical
- Design: key: ratio of mutant luminescence intensity to wild-type Gaussia luciferase
- experimentalConditions: Substrate f-CTZ (Table 16)
List of Activity of mutant relative to wild-type Gaussia luciferase without the signal peptide values.

Field: example entries. Status: answers known.
molecule	reportedResult
Q152R T167G G174S Q175E K178N A182Y G183A: Gaussia luciferase mutant (protein, SIGNAL (1)..(17), Gaussia luciferase mutant) MGVKVLFALICIAVAEAKPTENNEDFNIVAVASNFATTDLDADRGKLPGKKLPLEVLKEMEANARKAGCTRGCLICLSHIKCTPKMKKFIPGRCHTYEGDKESAQGGIGEAIVDIPEIPGFKDLEPMEQFIAQVDLCVDCTTGCLKGLANVRCSDLLKKWLPQRCAGFASKIQSEVDNIKGYAGD	0.404
E102K S103T A104G E110G V138D: Gaussia luciferase mutant (protein, SIGNAL (1)..(17), Gaussia luciferase mutant) MGVKVLFALICIAVAEAKPTENNEDFNIVAVASNFATTDLDADRGKLPGKKLPLEVLKEMEANARKAGCTRGCLICLSHIKCTPKMKKFIPGRCHTYEGDKKTGQGGIGGAIVDIPEIPGFKDLEPMEQFIAQVDLCDDCTTGCLKGLANVQCSDLLKKWLPQRCATFASKIQGQVDKIKGAGGD	4.919

Prompt: Given the entry Q152H Q163D T167S S170N G174K A182L G183N: Gaussia luciferase mutant (protein, SIGNAL (1)..(17), Gaussia luciferase mutant) MGVKVLFALICIAVAEAKPTENNEDFNIVAVASNFATTDLDADRGKLPGKKLPLEVLKEMEANARKAGCTRGCLICLSHIKCTPKMKKFIPGRCHTYEGDKESAQGGIGEAIVDIPEIPGFKDLEPMEQFIAQVDLCVDCTTGCLKGLANVHCSDLLKKWLPDRCASFANKIQKQVDKIKGLNGD , report its measured Activity of mutant relative to wild-type Gaussia luciferase without the signal peptide.
Response: 0.234

Origin of values: patent US20250066745A1
